quantity-name: melting point

Answered cases to consult:
O=c1c(-c2ccccc2)nc2ccccc2n1C1CC1 [Example 3-11] = 102 to 105 °C
O=c1c(-c2ccc(Cl)cc2)nc2ccccc2n1CC(F)F [Example 3-2] = 133 to 136 °C
CCn1c(=O)c(-c2ccc(F)cc2)nc2cc(F)c(F)cc21 [Example 3-9] = 116 to 118 °C
CCCCn1c(=O)c(-c2ccccc2)nc2ccccc21 [Example 3-16, 1-butyl-3-phenyl-quinoxalin-2(1H)-one] = 40 to 43 °C
CCn1c(=O)c(-c2ccc(F)cc2)nc2ccccc21 [Example 6-3] = 110 to 115 °C
O=c1c(-c2ccccc2)nc2ccccc2n1CC(F)F [Example 3] = 85 to 88 °C
CCn1c(=O)c(-c2ccc(Cl)cc2)nc2ccccc21 [Example 6] = 138 to 140 °C
CCCc1nc2ccccc2n(C2CC2)c1=O [Example 3-32] = 72 to 75 °C

// input: 2 compounds below; output: melting point for each
1. O=c1c(-c2ccc(F)cc2)nc2ccccc2n1C1CC1 [Example 3-14]
2. CCc1nc2cc(F)c(F)cc2n(CC)c1=O [Example 3-24]

Result:
["179 to 182 °C", "117 to 119 °C"]

---

Assignment: determine reported melting point for the given molecules.

Some entries whose results are on file:
O=c1c(-c2ccc(F)cc2)nc2ccccc2n1CC(F)F [Example 3-34] = 151 to 154 °C
O=c1c(-c2ccc(Cl)cc2)nc2ccccc2n1C1CC1 [Example 3-3] = 102 to 105 °C
CCn1c(=O)c(-c2ccc(Cl)cc2)nc2cc(F)c(F)cc21 [Example 3-10] = 135 to 137 °C
CCCCn1c(=O)c(CC)nc2ccccc21 [Example 3-29, 1-butyl-3-ethylquinoxalin-2(1H)-one] = 48 to 51 °C

Task: Respond only with melting point recorded for CCc1nc2ccccc2n(C2CC2)c1=O [Example 3-33]
Result: 77 to 80 °C

---

Consider the following compounds; for each one, report its Insulin secretion, % of ctrl at 10 μM of cpd.
# System: INS-1 cells
# assay-overview: Insulin secretion assay in INS-1 cells (glucose at 4.2 mM)
# Format: cell-based, rat
# protocol-conditions: glucose 4.2 mM, 1 h incubation, 10 μM compound, control = glucose 4.2 mM

O=c1c(-c2ccccc2)nc2ccccc2n1C1CC1 [Example 3-11] = 371 % of ctrl

Hi team, please reply with Insulin secretion, % of ctrl at 10 μM of cpd for each item in this list.
1. CCn1c(=O)c(-c2ccc(F)cc2)nc2ccccc21 [Example 6-3]
2. O=c1c(-c2ccc(Cl)cc2)nc2ccccc2n1CC(F)F [Example 3-2]
3. CCn1c(=O)c(-c2ccc(C)cc2)nc2ccccc21 [Example 6-4]

Result:
1. 316 % of ctrl
2. 540 % of ctrl
3. 305 % of ctrl

---

# System: INS-1 cells
# assay-overview: Insulin secretion assay in INS-1 cells (glucose at 4.2 mM)
# Format: cell-based, rat
# protocol-conditions: glucose 4.2 mM, 1 h incubation, 10 μM compound, control = glucose 4.2 mM
Exercise: for every item that follows, state its recorded Insulin secretion, % of ctrl at 10 μM of cpd.

The cases that follow already have their Insulin secretion, % of ctrl at 10 μM of cpd on record.
CCn1c(=O)c(-c2ccc(C(F)(F)F)cc2)nc2ccccc21 [Example 6-7] = 221 % of ctrl
CCn1c(=O)c(-c2ccc(Cl)cc2)nc2ccccc21 [Example 6] = 325 % of ctrl

Now for a further molecule.
Task: Query Insulin secretion, % of ctrl at 10 μM of cpd for CCn1c(=O)c(-c2ccc(F)cc2C)nc2ccccc21 [Example 6-5]
Result: 287 % of ctrl
